Values were extracted from patent US11702422B2.

Tested target: IL-17A(FLAG-Tagged): IL-17RA(His-Tagged) (Homo sapiens, UniProt Q16552, K93Q)
Sequence (Q16552 with tags, fused parts or gaps K93Q): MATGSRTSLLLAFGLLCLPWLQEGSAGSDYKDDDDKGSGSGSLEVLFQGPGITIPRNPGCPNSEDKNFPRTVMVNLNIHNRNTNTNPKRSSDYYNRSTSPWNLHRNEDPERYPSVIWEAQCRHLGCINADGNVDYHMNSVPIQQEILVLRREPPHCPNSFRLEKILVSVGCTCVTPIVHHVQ
Assay text: IL-17A(FLAG-Tagged): IL-17RA(His-Tagged) Binding Disruption Eu-HTRF Assay
Condition info: IL-17A/IL-17RA binding disruption, simple average if tested more than once
Test readout: IC50 (nM)

Recorded IC50, per entry:
INSERT INTO assay_data (compound, test_readout, endpoint_result) VALUES
  ('Cc1nonc1C(=O)N[C@H](c1cn2ncc([C@H](NC(=O)[C@H]3CC[C@@H]3F)C3CC3)cc2n1)C1CCC(F)(F)CC1 (relative stereo)', 'IC50', 4400),
  ('Cc1nonc1C(=O)N[C@H](c1cn2ncc([C@H](NC(=O)[C@@H]3CC[C@H]3F)C3CC3)cc2n1)C1CCC(F)(F)CC1 (relative stereo)', 'IC50', 7500),
  ('CC(C)n1nccc1C(=O)N[C@H](c1nc2cc([C@H](NC(=O)CCC(F)(F)F)C3CC3)cnn2c1F)C1CCC(F)(F)CC1', 'IC50', 250),
  ('CC(F)(F)c1cccc(C(=O)N[C@H](c2cn3ncc([C@H](NC(=O)CCC(F)(F)F)C4CC4)cc3n2)C2CCC(F)(F)CC2)n1', 'IC50', 2000);

P. CC(C)n1cncc1C(=O)N[C@H](c1cn2ncc([C@H](NC(=O)CCC(F)(F)F)C3CC3)cc2n1)C1CCC(F)(F)CC1
Q. Cc1nonc1C(=O)N[C@H](c1cn2ncc(C(CC3CCC3)NC(=O)CC3CC(F)(F)C3)cc2n1)C1CCC(F)(F)CC1 (single isomer, unassigned) [Example 439]
query: // pick larger IC50 from pair: P vs Q Field: selected label. Fill in the label of the entry you choose.
result: P
(P: 250 nM, Q: 99 nM)
